Reference source for all entries: ChEMBL document CHEMBL4330152

target: Carbonic anhydrase 1 (Homo sapiens) (UniProt P00915); assay: Activation of human CA-1 incubated for 15 mins prior to testing by stopped flow CO2 hydrase assay
Sequence (P00915 2-261 limits assumed): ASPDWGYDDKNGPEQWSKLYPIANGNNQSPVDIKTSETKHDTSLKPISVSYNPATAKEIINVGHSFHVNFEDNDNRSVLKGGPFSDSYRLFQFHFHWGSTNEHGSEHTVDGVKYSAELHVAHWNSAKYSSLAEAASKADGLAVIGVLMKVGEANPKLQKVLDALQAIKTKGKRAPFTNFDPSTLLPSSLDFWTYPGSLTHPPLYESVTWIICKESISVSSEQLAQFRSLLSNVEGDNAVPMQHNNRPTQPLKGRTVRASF
Given measured KA, output Met if it is greater than or equal to 6 µM and Not met if not.

1. Oc1ccccc1C1NCCc2nc[nH]c21 (centres undefined) = Not met
2. c1coc(C2NCCc3nc[nH]c32)c1 (centres undefined) = Met
3. N#Cc1ccc(C2NCCc3nc[nH]c32)cc1 (centres undefined) = Not met
4. c1ccc(C2NCCc3[nH]cnc32)cc1 (centres undefined) = Met
5. COc1ccc(C2NCCc3nc[nH]c32)cc1OC (centres undefined) = Not met
6. Cc1ccc(C2NCCc3nc[nH]c32)cc1 (centres undefined) = Met
7. Oc1ccc(Br)cc1C1NCCc2nc[nH]c21 (centres undefined) = Not met
8. Fc1cc(F)c(F)c(C2NCCc3nc[nH]c32)c1F (centres undefined) = Met
9. Brc1ccccc1C1NCCc2nc[nH]c21 (centres undefined) = Not met
10. Clc1ccc(C2NCCc3[nH]cnc32)cc1 (centres undefined) = Met

Has Cc1ccc(Br)cc1C1NCCc2nc[nH]c21 (centres undefined) a recorded KA greater than or equal to 6 µM?
Met

Has CN(C)c1ccc(C2NCCc3nc[nH]c32)cc1 (centres undefined) a recorded KA greater than or equal to 6 µM?
Not met

Has COc1cc(C2NCCc3nc[nH]c32)cc(OC)c1OC (centres undefined) a recorded KA greater than or equal to 6 µM?
Met

====

molecular target: Carbonic anhydrase 4 (Homo sapiens); assay: Activation of human CA-4 incubated for 15 mins prior to testing by stopped flow CO2 hydrase assay
Recorded KA determines the label; the label ranges are bin 0 (below 4 µM), bin 1 (4 µM to below 6 µM), bin 2 (6 µM or more)

1. COc1cc(C2NCCc3nc[nH]c32)cc(OC)c1OC (stereo not given) = bin 0

State the class of the compound shown: c1coc(C2NCCc3nc[nH]c32)c1 (stereo not given)
bin 0

State the class of the compound shown: CN(C)c1ccc(C2NCCc3nc[nH]c32)cc1 (stereo not given)
bin 0

State the class of the compound shown: Oc1ccccc1C1NCCc2nc[nH]c21 (stereo not given)
bin 0

====

target: Carbonic anhydrase 7 (Homo sapiens); experiment: Activation of human CA-7 incubated for 15 mins prior to testing by stopped flow CO2 hydrase assay
Recorded KA determines the label; the label ranges are category 1 = under 0.1 µM, category 2 = from 0.1 µM up to 0.8 µM, category 3 = 0.8 µM and over

1) COc1cc(C2NCCc3nc[nH]c32)cc(OC)c1OC (stereo not given) = category 1
2) Clc1ccc(C2NCCc3[nH]cnc32)cc1 (stereo not given) = category 3
3) c1coc(C2NCCc3nc[nH]c32)c1 (stereo not given) = category 1
4) N#Cc1ccc(C2NCCc3nc[nH]c32)cc1 (stereo not given) = category 3
5) c1ccc(C2NCCc3[nH]cnc32)cc1 (stereo not given) = category 3
6) Oc1ccccc1C1NCCc2nc[nH]c21 (stereo not given) = category 2

State the class of the molecule shown: Fc1cc(F)c(F)c(C2NCCc3nc[nH]c32)c1F (stereo not given)
category 2

State the class of the molecule shown: NCCc1c[nH]cn1
category 3

State the class of the molecule shown: Cc1ccc(C2NCCc3nc[nH]c32)cc1 (stereo not given)
category 3

State the class of the molecule shown: CN(C)c1ccc(C2NCCc3nc[nH]c32)cc1 (stereo not given)
category 2
